molecular target: Cellular tumor antigen p53 (Homo sapiens) (UniProt P04637); test: TOX21_p53_BLA_p3_ratio: Tox21 HCT-116 p53 Agonism Beta-lactamase Assay, Ratio, Phase 3 (AID 2283596)
Sequence (P04637 whole entry, looked up): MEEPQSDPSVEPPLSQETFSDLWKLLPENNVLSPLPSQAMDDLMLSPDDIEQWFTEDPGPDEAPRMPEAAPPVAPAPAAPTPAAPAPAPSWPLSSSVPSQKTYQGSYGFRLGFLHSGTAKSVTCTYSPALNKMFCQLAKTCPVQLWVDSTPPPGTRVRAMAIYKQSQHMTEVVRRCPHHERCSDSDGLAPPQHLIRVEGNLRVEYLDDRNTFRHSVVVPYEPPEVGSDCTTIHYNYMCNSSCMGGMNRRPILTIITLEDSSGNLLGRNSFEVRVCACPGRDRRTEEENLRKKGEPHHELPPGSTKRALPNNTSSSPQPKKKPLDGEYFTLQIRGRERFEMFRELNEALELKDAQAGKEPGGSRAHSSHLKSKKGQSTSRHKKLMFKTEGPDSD
Records with an inconclusive call do not appear. Calls of active or inactive are those of the source. The calls were made as follows: active = hit-call score of the fitted dose curve at least 0.9, where 1 is the maximum; inconclusive = response in the unintended direction; inactive = score below 0.9.
EXPERIMENTAL_READOUT: AC50

COMPOUND: C[C@H]1CC[C@]2(NC1)O[C@H]1C[C@H]3[C@@H]4CC[C@H]5C[C@@H](O)CC[C@]5(C)[C@H]4CC[C@]3(C)[C@H]1[C@@H]2C
EXPERIMENTAL_VALUE: inactive
--
COMPOUND: O=P1(N(CCCl)CCCl)NC(OO)CCO1 (stereo unspecified)
EXPERIMENTAL_VALUE: inactive
--
COMPOUND: C[N+]1(C)[C@@H]2CC[C@H]1CC(OC(=O)C(CO)c1ccccc1)C2 (stereo partly specified)
EXPERIMENTAL_VALUE: inactive
--
COMPOUND: CCOP(=O)(OCC)OP(=O)(OCC)OCC
EXPERIMENTAL_VALUE: inactive
--
COMPOUND: Oc1ccc(C(=C(Cl)Cl)c2ccc(O)cc2)cc1
EXPERIMENTAL_VALUE: inactive
--
COMPOUND: CC(C)(C)NCC(O)c1cc(Cl)c(N)c(Cl)c1 (stereo unspecified)
EXPERIMENTAL_VALUE: inactive
--
COMPOUND: C=CC(C)=O
EXPERIMENTAL_VALUE: inactive
--
COMPOUND: CC(O)C(=O)[O][Hg][c]1ccccc1 (stereo unspecified)
EXPERIMENTAL_VALUE: 2.21 µM (active)
--
COMPOUND: C/C(=C\c1csc(C)n1)[C@@H]1C[C@@H]2O[C@]2(C)CCC[C@H](C)[C@H](O)[C@@H](C)C(=O)C(C)(C)[C@@H](O)CC(=O)O1
EXPERIMENTAL_VALUE: 0.0123 µM (active)
--
COMPOUND: S=C=NCc1ccccc1
EXPERIMENTAL_VALUE: 42.9 µM (active)
--
COMPOUND: O=[N+]([O-])/C=C/c1ccccc1
EXPERIMENTAL_VALUE: inactive
--
COMPOUND: CCOC(=O)c1cncn1C(C)c1ccccc1 (stereo unspecified)
EXPERIMENTAL_VALUE: inactive
--
COMPOUND: O=NN(CCO)CCO
EXPERIMENTAL_VALUE: inactive
--
COMPOUND: C[C@]12Cc3nonc3C[C@@H]1CC[C@@H]1[C@@H]2CC[C@@]2(C)[C@H]1CC[C@]2(C)O
EXPERIMENTAL_VALUE: inactive
--
COMPOUND: O=c1oc2ccccc2c(O)c1Cc1c(O)c2ccccc2oc1=O
EXPERIMENTAL_VALUE: 1.07 µM (active)
--
COMPOUND: CCCCCc1cc(O)c2c(c1)OC(C)(C)[C@@H]1CCC(C)=C[C@@H]21
EXPERIMENTAL_VALUE: 40.4 µM (active)
--
COMPOUND: [Cl][Sn]([Cl])([Cl])[Cl]
EXPERIMENTAL_VALUE: inactive
--
COMPOUND: [Cl][Sb]([Cl])[Cl]
EXPERIMENTAL_VALUE: inactive
--
COMPOUND: COP(=O)(OC)Oc1ccc([N+](=O)[O-])cc1
EXPERIMENTAL_VALUE: inactive
--
COMPOUND: CCC[CH2][Sn]([CH2]CCC)([O]C(C)=O)[O]C(C)=O
EXPERIMENTAL_VALUE: 32.2 µM (active)
--
COMPOUND: Oc1cc(Cl)c(Cl)c(Cl)c1Cl
EXPERIMENTAL_VALUE: 6.58 µM (active)
--
COMPOUND: O=NN1CCCCC1
EXPERIMENTAL_VALUE: inactive
--
COMPOUND: [Hg+2].[I-].[I-]
EXPERIMENTAL_VALUE: 72.1 µM (active)
--
COMPOUND: O=c1[nH]oc2c1CCNC2
EXPERIMENTAL_VALUE: inactive
--
COMPOUND: CNC(=O)Oc1ccccc1C(C)C
EXPERIMENTAL_VALUE: inactive
--
COMPOUND: CNC(C)Cc1ccccc1OC (stereo unspecified)
EXPERIMENTAL_VALUE: inactive
